Cited source: ChEMBL document CHEMBL4330155

Each entry below carries its reported MIC.
- Tested on: Staphylococcus aureus
- Assay overview: Antibacterial activity against Staphylococcus aureus ATCC 43300 by XTT dye based assay
- Format: functional
Quick note: give the figure in µg/mL, leave out the unit.

Look at this molecule and give its reported MIC. CCCCCC[C@H](C)/C=C(\C)C(=O)O
25

----------
Each entry below carries its reported MIC.
- Test system: Enterococcus faecium
- Assay overview: Antibacterial activity against Enterococcus faecium ATCC 35667 by XTT dye based assay
- Type: functional
Quick note: give the figure in µg/mL, leave out the unit.

Compound	Units	Readout value
CCCCCC[C@H](C)/C=C(\C)C(=O)O[C@]1(C)C(=O)C2=COC(C3=C(C)C[C@@H](O)CC3=O)=CC2=C(Br)C1=O	µg/mL	25
CN[C@H](CC(C)C)C(=O)N[C@H]1C(=O)N[C@@H](CC(N)=O)C(=O)N[C@H]2C(=O)N[C@H]3C(=O)N[C@H](C(=O)N[C@H](C(=O)O)c4cc(O)cc(O)c4-c4cc3ccc4O)[C@H](O)c3ccc(c(Cl)c3)Oc3cc2cc(c3O[C@@H]2O[C@H](CO)[C@@H](O)[C@H](O)[C@H]2O[C@H]2C[C@](C)(N)[C@H](O)[C@H](C)O2)Oc2ccc(cc2Cl)[C@H]1O.Cl [VANCOMYCIN HYDROCHLORIDE]	µg/mL	0.78
CCCCCC[C@H](C)/C=C(\C)C(=O)O[C@@]1(C)C(=O)c2c(cc(O)c3c2C[C@H](O)C[C@]3(C)O)[C@](C)(O)C1=O	µg/mL	25

Hi! What's the reported MIC for CCCCCC[C@H](C)/C=C(\C)C(=O)O[C@]1(C)C(=O)C2=COC(c3c(C)cccc3O)=CC2=C(Br)C1=O on Enterococcus faecium?
12.5

----------
- Test system: Staphylococcus aureus
- Assay overview: Antibacterial activity against Staphylococcus aureus ATCC 43300 by XTT dye based assay
- Format: functional
Each entry below carries its reported MIC.
Quick note: give the figure in µg/mL, leave out the unit.

Compound	Tgt	MIC [µg/mL]
CCCCCC[C@H](C)/C=C(\C)C(=O)O[C@]1(C)C(=O)C2=COC(c3c(C)cccc3O)=CC2=C(Br)C1=O	Staphylococcus aureus	12.5

Look at this compound and give its reported MIC. CCCCCC[C@H](C)/C=C(\C)C(=O)O[C@]1(C)C(=O)C2=COC(C3=C(C)C[C@@H](O)CC3=O)=CC2=C(Br)C1=O
50

Look at this compound and give its reported MIC. CN[C@H](CC(C)C)C(=O)N[C@H]1C(=O)N[C@@H](CC(N)=O)C(=O)N[C@H]2C(=O)N[C@H]3C(=O)N[C@H](C(=O)N[C@H](C(=O)O)c4cc(O)cc(O)c4-c4cc3ccc4O)[C@H](O)c3ccc(c(Cl)c3)Oc3cc2cc(c3O[C@@H]2O[C@H](CO)[C@@H](O)[C@H](O)[C@H]2O[C@H]2C[C@](C)(N)[C@H](O)[C@H](C)O2)Oc2ccc(cc2Cl)[C@H]1O.Cl [VANCOMYCIN HYDROCHLORIDE]
0.78

Look at this compound and give its reported MIC. CCCCCC[C@H](C)/C=C(\C)C(=O)O[C@@]1(C)C(=O)c2c(cc(O)c3c2C[C@H](O)C[C@]3(C)O)[C@](C)(O)C1=O
12.5

----------
Each entry below carries its reported MIC.
- System: Enterococcus faecium
- Assay overview: Antibacterial activity against Enterococcus faecium ATCC 35667 by XTT dye based assay
- Assay type: functional

Illustrative cases are given below, each with its answer.
CCCCCC[C@H](C)/C=C(\C)C(=O)O > 50 µg/mL
CCCCCC[C@H](C)/C=C(\C)C(=O)O[C@@]1(C)C(=O)c2c(cc(O)c3c(C)cccc23)[C@](C)(O)C1=O > 50 µg/mL

# evaluate next
Hi! What's the reported MIC for Cc1onc(-c2ccccc2)c1C(=O)N[C@@H]1C(=O)N2[C@@H]1SC(C)(C)[C@@H]2C(=O)[O-].[Na+] on Enterococcus faecium?
> 50 µg/mL
